Tested on: NCI/ADR-RES
Assay: NCI tumour cell line growth inhibition, 48 h
Calls of active or inactive are those of the source. Rule as the data show it: active = GI50 up to about 1.1 µM and inactive = higher.
The reader will find reported GI50 values listed item by item below.
MEASURE: GI50

COc1ccc(NC(=O)Oc2cc(C)c3ccc(=O)cc-3o2)c(OC)c1.COc1ccc(NC(=O)Oc2ccc3c(C)cc(=O)oc3c2)c(OC)c1 = > 100 µM (inactive)
NC1CNC(=O)c2cscc21 (stereo not given) = 3.01 µM (inactive)
C=C[C@@]1(C)CC2CC[C@]3(C)C(C)=CC(=O)CC3[C@]2(C)CC1O (stereo not given in full) = > 100 µM (inactive)
CCCCCCCCCCCCNC(C)=O = 17.3 µM (inactive)
O=[N+]([O-])c1ccc2nc(-c3ccccn3)c(-c3ccccn3)nc2c1 = > 100 µM (inactive)

----------
Test system: SK-OV-3
Assay: NCI tumour cell line growth inhibition, 48 h
Active and inactive are the calls of the source. No stated cut-off is given here; in the data, active = GI50 up to about 1.1 µM and inactive = higher. Where a SMILES comes first, the peptide text is derived from it. [ ]: non-standard residue; d: D form. The star is where a group is joined. Phe(4-NO2) = N[CH](Cc1ccc([N+](=O)[O-])cc1)C(=O)O; Boc = CC(C)(C)OC(=O)*; OtBu = CC(C)(C)O*
MEASURE: GI50

CSC(SC)=C(C(=O)O)P(=O)(O)O = > 100 µM (inactive)
CCN(CC)C(=S)SS(=O)(=O)c1ccc(C)cc1 = > 100 µM (inactive)
COc1ccc(Cn2c(=O)c(OC)c(C)c3cc4ccccc4cc32)cc1 = 42.3 µM (inactive)
C=CC(=O)N1C/C(=C\c2ccccc2)C(=O)/C(=C/c2ccccc2)C1 = 2.58 µM (inactive)
Cc1ccc2c(c1)CC1(Cc3cccc(C)c3C1=O)C2=O (stereo not given) = 88.5 µM (inactive)
O=C(c1ccccc1)C1CCCCN1C(=O)c1ccccc1 (stereo not given) = > 100 µM (inactive)
O=C1C(Cl)=CC2(C=C1Cl)CCNC1=C2C(=O)c2nc[nH]c2C1=O = > 100 µM (inactive)
CN(C)/C(=N/C(=S)Nc1ccccc1)SCc1ccccc1 = > 100 µM (inactive)
COC(=O)C(Cc1ccc([N+](=O)[O-])cc1)NC(=O)C(CC(=O)OC(C)(C)C)NC(=O)OC(C)(C)C (stereo not given) (Boc-Asp(OtBu)-[Phe(4-NO2)]-OMe; configuration not given here) = > 100 µM (inactive)
CC(=O)OCCN1c2ccccc2Sc2cnccc21 = > 10 µM (inactive)
CCOC(=O)c1c(N2CCOCC2)ncn(-c2cccc(Cl)c2)c1=O = > 100 µM (inactive)
CCOC(=O)NC(Nc1ccc(OC(F)(F)F)cc1)(C(F)(F)F)C(F)(F)F = > 100 µM (inactive)
CC(=O)OC(C)c1cc2c(s1)C(=O)c1c(C(C)OC(C)=O)csc1C2=O (stereo not given) = 3.6 µM (inactive)
CC(=O)N(C(C)=O)n1c(Cc2ccc(Cl)cc2)n[nH]c1=O = > 100 µM (inactive)
CCOC(=O)C(NC(=O)CC)(C(F)(F)F)P(=O)(OCC)OCC (stereo not given) = > 100 µM (inactive)
O=C1CSC(c2cccc([N+](=O)[O-])c2)N1c1ccc(-n2c(-c3ccccc3)nc3ccccc3c2=O)cc1 (stereo not given) = 26.2 µM (inactive)
O=C1CCC(=O)C(C(=O)CCC(=O)Nc2ccc(Cl)cc2)C1 (stereo not given) = > 100 µM (inactive)
COC(=O)c1cc(C(=CCC[C@H]2CC[C@@]3(C)C(CCC4C3CC[C@@]3(C)C4CC[C@@H]3C(C)CCCC(C)C)C2)c2cc(Cl)c(O)c(C(=O)OC)c2)cc(Cl)c1O (stereo not given in full) = > 10 µM (inactive)
CC(C)(CN)SCc1ccccc1 = > 100 µM (inactive)
COC(=O)C(O)P(=O)(OC)OC (stereo not given) = > 100 µM (inactive)
Nc1ncnc2c1ncn2CC(O)C(=O)O (stereo not given) = > 100 µM (inactive)
CCCCC1=C(C(=O)N2CCOCC2)C2(OCCO2)C1Cl (stereo not given) = 26 µM (inactive)
CC(=O)OCC1OC(N2C(=O)CC(N)=Nc3ccccc32)C(OC(C)=O)C(OC(C)=O)C1OC(C)=O (stereo not given) = > 100 µM (inactive)
OC[C@]1(n2nc3ccccc3n2)OC[C@@H]1c1ccccc1 = > 100 µM (inactive)
C=C(C)[C@H]1CC[C@@]2(C)C(C1)[C@H](C)CC[C@@H]2O (stereo not given in full) = > 100 µM (inactive)
N#CC(C#N)=Cc1ccc2c(c1)OC(Cl)O2 (stereo not given) = 28.5 µM (inactive)
CC1=NN(C(=O)CC(=O)Nc2cccc(Cl)c2)C(=O)C1/N=N/c1ccc(S(N)(=O)=O)cc1 (stereo not given) = > 100 µM (inactive)
CN1Cc2ccccc2/C=C\c2ccccc21 = 87.3 µM (inactive)
Cc1c(C(=O)CC(=O)C(=O)NC2C3CC4CC(C3)CC2C4)[n+]([O-])c2ccccc2[n+]1[O-] (stereo not given) = > 100 µM (inactive)
CC(C)c1ccc(/C=C2/C=C(c3ccc4ccccc4c3)OC2=O)cc1 = > 100 µM (inactive)
COC(C(=O)NCCCCNC(=O)C(OC)c1ccccc1)c1ccccc1 (stereo not given) = > 100 µM (inactive)
Cc1c(C(=O)/C=C/c2ccc(N(C)C)cc2)c(=O)n(-c2ccccc2)n1C = > 100 µM (inactive)
O=C(c1ccccc1)c1ccc(N2C(=O)/C(=C/c3ccccc3S)N=C2c2ccccc2)c(N2C(=O)/C(=C/c3ccccc3S)N=C2c2ccccc2)c1 = > 100 µM (inactive)
O=C1Nc2ccccc2/C1=N/N=c1\cccc[nH]1 = 18.6 µM (inactive)
CC(=O)NC1C(OCc2ccccc2)OC(COC(=O)CCCCCNc2ccc([N+](=O)[O-])c3[nH]c4ccc(O)cc4c(=O)c23)C(O)C1OC(C)C(=O)N[C@@H](C)C(=O)N[C@H](CCC(=O)OCc1ccccc1)C(N)=O (stereo not given in full) = 2.99 µM (inactive)
C[C@]12CC[C@H](O)C[C@@H]1CC[C@@H]1[C@@H]2CC[C@]2(C)[C@@H](C3=CC(=O)OC3)CC[C@]12O = 3.21 µM (inactive)
COc1ccc2c(c1)[n+]([O-])c(-c1ccc(C)cc1)c(N)[n+]2[O-] = > 100 µM (inactive)
COC(=O)C1Cc2c([nH]c3ccccc23)C(c2ccccc2O)N1 (stereo not given) = > 100 µM (inactive)
C=C(C)C1CC/C(C)=C/CCC2(C)OC2CC/C(CO)=C\C1O (stereo not given) = > 100 µM (inactive)
CC(C#N)(NO)C(C)(C#N)NO (stereo not given) = > 100 µM (inactive)
